Cited source for all entries: patent US10941182

Consider the following binders and their measured EC50 Human APJ Receptor readings.
- Target Under Test: T1, human APJ receptor (human, UniProt P35414 1-380)
- T1 sequence (looked up): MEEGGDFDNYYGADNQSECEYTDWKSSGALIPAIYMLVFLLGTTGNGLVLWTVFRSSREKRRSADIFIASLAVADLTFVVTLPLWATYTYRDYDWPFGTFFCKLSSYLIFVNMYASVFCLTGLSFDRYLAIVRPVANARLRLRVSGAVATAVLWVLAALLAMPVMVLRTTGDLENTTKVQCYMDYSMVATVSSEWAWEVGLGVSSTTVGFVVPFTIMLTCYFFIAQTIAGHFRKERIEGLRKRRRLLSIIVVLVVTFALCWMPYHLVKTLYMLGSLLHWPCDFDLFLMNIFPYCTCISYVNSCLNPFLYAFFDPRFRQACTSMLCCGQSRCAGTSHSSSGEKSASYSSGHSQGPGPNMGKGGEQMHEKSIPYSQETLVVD
- Assay Protocol: cell-based or functional assay
Starred links: 1 amine or outer side, 2 acyl side, 3 side chain; linkers in the order of their positions; H or OH if unused. Non-standard residues stand in square brackets, D forms with d. No end group written: not given here. rhArg = homoarginine with ψ(CH2NH) reduced amide bond, N=C(N)NCCCC[C@@H](C[*:2])N[*:1]; Oic = O=C(O)[C@@H]1C[C@@H]2CCCC[C@@H]2N1; Phe(4-Cl) = N[C@@H](Cc1ccc(Cl)cc1)C(=O)O; 2Nal = N[C@@H](Cc1ccc2ccccc2c1)C(=O)O; d1Nal = N[C@H](Cc1cccc2ccccc12)C(=O)O; NMeR = CN[C@@H](CCCNC(=N)N)C(=O)O; hArg = N=C(N)NCCCC[C@H](N)C(=O)O; β3hR = N=C(N)NCCC[C@H](N)CC(=O)O; Cha = N[C@@H](CC1CCCCC1)C(=O)O; αMeS = C[C@](N)(CO)C(=O)O; Nle = CCCC[C@H](N)C(=O)O; Orn = NCCC[C@H](N)C(=O)O; Aib = CC(C)(N)C(=O)O; βAla = NCCC(=O)O; Mpa = O=C(O)CCS

As a guide, the following entries are already answered.
Binder	EC50 Human APJ Receptor
Ac-[Orn]F[hArg][hArg]QRP[hArg][Cha]SHKGP[Nle][2Nal]-OH (SMILES CCCC[C@H](NC(=O)[C@@H]1CCCN1C(=O)CNC(=O)[C@H](CCCCN)NC(=O)[C@H](Cc1c[nH]cn1)NC(=O)[C@H](CO)NC(=O)[C@H](CC1CCCCC1)NC(=O)[C@H](CCCCNC(=N)N)NC(=O)[C@@H]1CCCN1C(=O)[C@H](CCCNC(=N)N)NC(=O)[C@H](CCC(N)=O)NC(=O)[C@H](CCCCNC(=N)N)NC(=O)[C@H](CCCCNC(=N)N)NC(=O)[C@H](Cc1ccccc1)NC(=O)[C@H](CCCN)NC(C)=O)C(=O)N[C@@H](Cc1ccc2ccccc2c1)C(=O)O) [apelin polypeptide SEQ ID NO: 49]	0.159 nM
Ac-[Orn]F[hArg][hArg]Q[hArg]P[hArg][Cha][αMeS]HKG[Oic][Nle]P[Phe(4-Cl)]-OH [apelin polypeptide SEQ ID NO: 35]	0.0861 nM

What value of EC50 Human APJ Receptor has been recorded for this entry: Ac-Q[dR]P[NMeR][Cha]SHKG[Oic][Nle][d1Nal]-OH (SMILES CCCC[C@H](NC(=O)[C@@H]1C[C@@H]2CCCC[C@@H]2N1C(=O)CNC(=O)[C@H](CCCCN)NC(=O)[C@H](Cc1c[nH]cn1)NC(=O)[C@H](CO)NC(=O)[C@H](CC1CCCCC1)NC(=O)[C@H](CCCNC(=N)N)N(C)C(=O)[C@@H]1CCCN1C(=O)[C@@H](CCCNC(=N)N)NC(=O)[C@H](CCC(N)=O)NC(C)=O)C(=O)N[C@H](Cc1cccc2ccccc12)C(=O)O) [apelin polypeptide SEQ ID NO: 54]
30.1 nM

Would you mind doing [Orn]F[hArg][hArg]Q[hArg]P[hArg][Cha]SHKG[Oic][Nle][βAla][Phe(4-Cl)] [apelin polypeptide SEQ ID NO: 710] as well?
0.785 nM

Would you mind doing Q[hArg]P[NMeR][Cha]SHKG[Oic][Nle]P[Phe(4-Cl)] [apelin polypeptide SEQ ID NO: 675] as well?
0.159 nM

Would you mind doing Ac-[Orn]F[hArg][hArg]Q[hArg]P[rhArg][Cha]SHKG[Oic][Nle]P[Phe(4-Cl)]-OH (also: reduced amide bond (CH2NH) at residue 8) [apelin polypeptide SEQ ID NO: 39] as well?
0.253 nM

Would you mind doing {20K mPEGacetamide}-[Mpa]RQRP[hArg][Cha]SHKG[Oic][Nle]P[Phe(4-Cl)]-OH (numbers in words are those of the source; also: 20 kDa PEG conjugate) [apelin polypeptide SEQ ID NO: 100] as well?
8.06 nM

Would you mind doing [Orn]F[hArg][hArg]Q[hArg][Aib][hArg][Cha]SHKG[Oic][Nle]P[Phe(4-Cl)] [apelin polypeptide SEQ ID NO: 677] as well?
3.5 nM

Would you mind doing [Orn]F[hArg][hArg]Q[hArg]P[β3hR][Cha]SHKG[Oic][Nle]P[Phe(4-Cl)] [apelin polypeptide SEQ ID NO: 696] as well?
0.261 nM
